Let's look at some sequences and their measured phosphorylation enrichment.
Biological target: EPHB2 (UniProt P29323)
Sequence (P29323 whole entry, looked up): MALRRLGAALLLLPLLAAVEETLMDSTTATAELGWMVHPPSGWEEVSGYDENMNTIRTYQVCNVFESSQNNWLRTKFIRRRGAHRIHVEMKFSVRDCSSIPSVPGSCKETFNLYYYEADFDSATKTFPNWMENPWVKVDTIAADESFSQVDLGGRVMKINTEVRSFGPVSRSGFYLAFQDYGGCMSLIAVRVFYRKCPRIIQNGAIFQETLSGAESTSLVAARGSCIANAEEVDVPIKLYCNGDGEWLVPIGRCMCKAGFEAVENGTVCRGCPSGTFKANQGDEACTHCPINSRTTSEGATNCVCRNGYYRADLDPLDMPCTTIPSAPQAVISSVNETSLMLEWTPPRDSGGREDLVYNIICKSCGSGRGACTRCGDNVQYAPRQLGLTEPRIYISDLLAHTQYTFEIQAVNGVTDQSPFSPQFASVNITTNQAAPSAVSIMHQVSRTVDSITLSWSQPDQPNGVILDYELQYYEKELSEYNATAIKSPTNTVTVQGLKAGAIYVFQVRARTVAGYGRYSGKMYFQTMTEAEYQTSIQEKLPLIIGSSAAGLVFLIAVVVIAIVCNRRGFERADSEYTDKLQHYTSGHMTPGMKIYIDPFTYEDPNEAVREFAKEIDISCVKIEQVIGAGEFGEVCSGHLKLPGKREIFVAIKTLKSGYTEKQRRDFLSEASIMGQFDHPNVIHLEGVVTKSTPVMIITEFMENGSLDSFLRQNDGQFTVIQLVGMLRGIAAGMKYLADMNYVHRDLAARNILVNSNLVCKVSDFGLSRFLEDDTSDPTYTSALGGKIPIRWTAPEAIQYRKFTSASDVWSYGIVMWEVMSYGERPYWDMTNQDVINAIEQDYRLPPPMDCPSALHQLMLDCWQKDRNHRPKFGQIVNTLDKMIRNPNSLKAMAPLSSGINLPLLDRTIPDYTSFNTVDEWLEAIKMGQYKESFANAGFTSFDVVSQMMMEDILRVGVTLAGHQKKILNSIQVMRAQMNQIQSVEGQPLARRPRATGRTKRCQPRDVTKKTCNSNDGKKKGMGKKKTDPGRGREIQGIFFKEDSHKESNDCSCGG
Assay: phosphorylation enrichment, bacterial display (enrichment ratio); higher = better substrate or ligand; peptides without Tyr show the background;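 also: 11-residue human phosphosite peptides and single-mutation variants displayed on the E. coli surface, counted by deep sequencing, each peptide's frequency after selection divided by its frequency in the unselected input library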;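 also: frequency after pTyr selection over input frequency; kinase dosed for 20-30% of maximal phosphorylation in three min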

| sequence.content | phosphorylation enrichment |
| --- | --- |
| SDGGCYEQLFV [MC4R_Y41] | 0.74 |
| CSKRFYQLTKL [AR_Y858_R855K] | 0.44 |
| IYETDYYRKGG [INSR_Y1189] | 0.673 |
| GFVEDYRPPFF [ACVRL1_Y421_I417F_YF] | 0.444 |
| GTFVIYVRFGG [FLNB_Y1687_YF] | 0.49 |

Please look up its phosphorylation enrichment: RLLVVYRWTQR [HBB_Y36_P37R]
0.787

Suppose we examine the sequence TVHCDYLNISH [TAF1L_Y1385_P1389S] ; what phosphorylation enrichment value has been reported?
0.634
